Measured AC50 (Cytochrome P450 2C9 (Homo sapiens))

Some solved entries appear below for comparison.
Cc1ccc(-c2nnc(-c3ccc4ccccc4c3)o2)cc1 = 5.01 µM (inconclusive)
Cc1ccc(C(=O)NC(=S)NCC(=O)c2ccccc2)cc1 = 2.51 µM (inconclusive)
O=C(CN1C(=O)c2cccc3cccc(c23)C1=O)N1CCCCCC1 = 22.4 µM (inconclusive)
CCc1cc2c(nc1CC)CCN(CC/C(C)=N/OC[C@H]1O[C@H](c3ccccc3)C=C[C@@H]1Oc1ccc(OC)cc1)C2 = 6.31 µM (inconclusive)
CC(C)OC(=O)CSc1nc(-c2ccc(F)cc2)nc2ccc(F)cc12 = 0.0178 µM (inconclusive)

[ask] Consider the molecule CCCCOC(=O)Nc1ccc(C)c(Cl)c1 and give its measured AC50.
[reply] 11.2 µM (inconclusive)
